PROTOCOL SUMMARY: rotating rod test (sedative/muscle relaxant properties)
Format: in vivo, mice
EXPERIMENTAL CONDITIONS: Mus musculus, iv, 2 min; i.v., 2 min after administration; read-out: Rotating rod test, ED550
Experimental: The sedative/muscle relaxant properties of the compounds of formula I in accordance with the invention can be determined, for example, in the rotating rod test. Mice weighing 19-21 g are used for this test. They have free access to feed and drinking water up to 1 h before the beginning of the test. […] At various points in time it is then determined whether the animals are able to remain on the rod for a minimum period (minimum period: 10 sec.; from 5 min. after administration: 1 min.). […]
Categories are defined by ranges of ED50, namely Low = under 1 mg/kg, Mid = from 1 mg/kg up to 3 mg/kg, High = 3 mg/kg and over

Please review the following examples before continuing.
>>> df
                           structure_smiles  class_label
0  CCCN(CCC)Cc1cnc(-c2ncn3c2CN(C)C(=O)c2ccccc2-3)o1         High
1  CCCN(CCC)Cc1cnc(-c2ncn3c2CN(C)C(=O)c2sccc2-3)o1         High
2  CCCCN(CCCC)Cc1cnc(-c2ncn3c2CN(C)C(=O)c2cc(F)ccc2-3)o1          Mid
3  CCCN(CCC)Cc1csc(-c2ncn3c2[C@@H]2CCN2C(=O)c2c(Cl)cccc2-3)n1          Low
4  CCCN(CCC)Cc1cnc(-c2ncn3c2CN(C)C(=O)c2c-3ccc(F)c2Cl)o1          Low

Exam item: assign CCCN(CCC)Cc1cnc(-c2ncn3c2[C@@H]2CCN2C(=O)c2c(Cl)cccc2-3)o1 to the correct category.
Mid

Exam item: assign CCCN(CCC)Cc1cnc(-c2ncn3c2CN(C)C(=O)c2c(Cl)cccc2-3)o1 to the correct category.
Mid

Exam item: assign CCCN(CCC)Cc1cnc(-c2ncn3c2CN(C)C(=O)c2cc(F)ccc2-3)o1 to the correct category.
Mid

Exam item: assign CCCN(CCC)Cc1csc(-c2ncn3c2[C@@H]2CCCN2C(=O)c2c(Cl)cccc2-3)n1 to the correct category.
High

Exam item: assign CCCN(CCC)Cc1csc(-c2ncn3c2CN(C)C(=O)c2c(Cl)cccc2-3)n1 to the correct category.
High

Exam item: assign CCCN(CCC)Cc1csc(-c2ncn3c2CN(C)C(=O)c2c-3ccc(F)c2Cl)n1 to the correct category.
Mid

Exam item: assign CCCN(CCC)Cc1cnc(-c2ncn3c2[C@@H]2CCN2C(=O)c2sccc2-3)o1 to the correct category.
Low
